Tested on: SF-295 CNS
assay_protocol: NCI-60 one-dose screen, 48 h (100 = growth as untreated, 0 = no growth, -100 = all killed)
condition: 10 µM unless noted
The panel holds about 83,000 compounds, 20% with a hit somewhere; the sample as a whole holds those more often.
parameter_measured: growth (%)

1) COc1ccc(-c2cc(/C=C3\C(=O)Nc4ccc(Cl)cc43)[nH]n2)cc1 : 47
2) N#Cc1c2c(nc3n[nH]c(N)c13)CCCC2 : 101
3) CCOC(=O)C12CCCC1=CC(=O)CC2 (centres undefined) : 115
4) C[C@@]1(N2C(=O)OC[C@@H]2c2ccccc2)C(=O)N([C@H](CC(=O)N2CCC(N3CCCCC3)CC2)C(=O)NCc2cccc(C(F)(F)F)c2)[C@@H]1/C=C/c1ccccc1 : 100
5) Cn1c2c(Cl)c(Cl)ccc2c2ccn3c(=O)c4ccccc4nc3c21 : 102
6) CN1CCN(Cc2ccc(NC(=O)c3[nH]ncc3Nc3ncnc4sccc34)cc2)CC1 : 24
7) COc1cccc(-c2nc3sccn3c2-c2ccnc(NCCCNS(=O)(=O)c3ccc(Cl)cc3)c2)c1 : 42.7
8) CN1CCOCCOCCOc2ccccc2NC(=O)c2nc(cnc2N)-c2ccc(cc2)S1(=O)=O : 57.7
9) O=C(CN1CCN(c2cc3c(cc2F)c(=O)c(C(=O)O)cn3C2CC2)CC1)Nc1cc(=O)[nH]c(=O)[nH]1 : 86.8
10) COc1c(C2CC(=O)Nc3c2cnn3Cc2ccco2)cc2c(c1OC)OCO2 (centres undefined) : -20.6
11) CC(=O)/C(=C/c1cccc(Cl)c1)C(=O)c1ccccc1 : 96.1
12) CCN(CC)Cc1cc(Nc2c3ccccc3nc3cc(Cl)ccc23)ccc1O : -38.3
13) CC/C(Cc1ccccc1)=C(\c1ccc(OCCN2CCCC2)cc1)c1ccc(OC(C)=O)cc1 : 99.6
14) CNC(=O)c1cc(Oc2ccc3nc(NC(=O)Nc4ccc(CN5CCOCC5)c(C(F)(F)F)c4)sc3c2)ccn1 : 11
15) CN(C)C(=O)c1cc2cnc(Nc3ccc(-c4csc5c(=O)cc(N6CCNCC6)oc45)cc3)nc2n1C1CCCC1 : 15.2
16) CCc1ccc(C(c2ccc(CC)cc2)C(Cl)(Cl)CCl)cc1 : 105
17) CCCCNP1(NCCCC)=NP(NCCCC)(NCCCC)=NP(NCCCC)(NCCCC)=NP(NCCCC)(NCCCC)=N1 : -25
18) CN(CC(=O)N(Cc1ccc(C2CCCCC2)cc1)c1ccc(C(=O)NO)cc1)S(=O)(=O)c1c(F)c(F)c(F)c(F)c1F : 108
19) CN[C@@]12CC3(C=CC(=O)C=C3)O[C@]1(Cc1ccc(OC)cc1)N(C)C(=O)N2 : 109
